Experiment: AUClast in Sprague-Dawley rat at 1 mg/kg, po
Format: ADME, organism-based
Design: time 0 - last, dose 1 mg/kg, route oral
Conditions: plasma
ENDPOINT_LABEL: AUC(0-t) (ng·h/mL)

[
  {
    "SAMPLE_SMILES": "O=C1CC(=O)CC(c2cc(C(F)(F)F)cc(C(F)(F)F)c2)C1",
    "ENDPOINT_LABEL": "AUC(0-t)",
    "OBSERVED_MEASUREMENT": 1760
  }
]

---

Assay: AUClast in Sprague-Dawley rat at 1 mg/kg, iv
Type: ADME, organism-based
Design: time 0 - last, dose 1 mg/kg, route intravenous
Settings: plasma
ENDPOINT_LABEL: AUC(0-t) (ng·h/mL)

[
  {
    "SAMPLE_SMILES": "O=C1CC(=O)CC(c2cc(C(F)(F)F)cc(C(F)(F)F)c2)C1",
    "OBSERVED_MEASUREMENT": 1980
  }
]
